Field: GI50. Provide a value for each of the compounds that follow.
# System: A549
# Method: NCI tumour cell line growth inhibition, 48 h
Active and inactive are the calls of the source. Cut-off read from the data, not from the text of the source: active = GI50 up to about 1.1 µM and inactive = higher.

Example entries begin here.
compound=O=C(O)c1cc(Sc2ccc([N+](=O)[O-])c(C(=O)O)c2)ccc1[N+](=O)[O-] result="> 100 µM (inactive)"
compound=O=C(NN=C1NCCCCN1)Nc1ccc(Cl)cc1 result="> 100 µM (inactive)"
compound=O=c1cc(-c2ccccc2)nc2[nH]ccn12 result="> 10 µM (inactive)"
compound=O=c1[nH]nc(-c2ccccc2)n1/N=C/c1cccs1 result="52.4 µM (inactive)"
compound="C=COC(=O)N1C2CCCC(Cl)(C(C)=O)C1CC2 (stereo unspecified)" result="> 100 µM (inactive)"

Attention now shifts to the item below.
Can you look up the measured GI50 of OCc1ccc2c(c1)CC1(Cc3ccc(/C=N/O)cc3C1)C2 (stereo unspecified) for me? 4.93 µM (inactive)
